- Test system: THP-1 viability, CellTiter-Glo luminescence, 72 h
- PROTOCOL DETAILS: PubChem AID 2252
pEC50: −log10 of the molar value.
MEASURED PARAMETER: pEC50

| COMPOUND | ASSAYED TARGET | pEC50 |
| --- | --- | --- |
| CS(=O)(=O)c1ccc([C@@H](O)[C@@H](CF)NC(=O)C(Cl)Cl)cc1 | THP-1 viability, CellTiter-Glo luminescence, 72 h | > 7.00 |
| Cc1ccccc1S(=O)(=O)NNC(=O)C(=O)NNc1ccccn1 | THP-1 viability, CellTiter-Glo luminescence, 72 h | 4.62 |
| Fc1ccc(Nc2ccnc(Nc3ccc(F)cc3)n2)cc1 | THP-1 viability, CellTiter-Glo luminescence, 72 h | 4.93 |
| Cc1ccc(C(c2cc(Cl)c3cccnc3c2O)N2CCN(C)CC2)cc1 (stereo unspecified) | THP-1 viability, CellTiter-Glo luminescence, 72 h | 5.31 |

// query Recall and state the measured pEC50 for Cc1c(C(=O)Nc2ccncc2)sc2nc(-c3ccc(F)cc3)cn12 .
// result 4.71

These data points were gathered from PubChem BioAssay AID2252.
